biological target: nuclear factor-kappa B (NF-kB)-inducing kinase (NIK) (Homo sapiens (Human)); test: NIK enzyme inhibition assay (Transcreener ADP, NIK ADP-FP); format: biochemical; conditions: purified NIK 0.5 nM, 10 μM ATP, fluorescence polarization; read-out: NIK ADP-FP (Ki μM)
Sequence (Q99558 whole entry): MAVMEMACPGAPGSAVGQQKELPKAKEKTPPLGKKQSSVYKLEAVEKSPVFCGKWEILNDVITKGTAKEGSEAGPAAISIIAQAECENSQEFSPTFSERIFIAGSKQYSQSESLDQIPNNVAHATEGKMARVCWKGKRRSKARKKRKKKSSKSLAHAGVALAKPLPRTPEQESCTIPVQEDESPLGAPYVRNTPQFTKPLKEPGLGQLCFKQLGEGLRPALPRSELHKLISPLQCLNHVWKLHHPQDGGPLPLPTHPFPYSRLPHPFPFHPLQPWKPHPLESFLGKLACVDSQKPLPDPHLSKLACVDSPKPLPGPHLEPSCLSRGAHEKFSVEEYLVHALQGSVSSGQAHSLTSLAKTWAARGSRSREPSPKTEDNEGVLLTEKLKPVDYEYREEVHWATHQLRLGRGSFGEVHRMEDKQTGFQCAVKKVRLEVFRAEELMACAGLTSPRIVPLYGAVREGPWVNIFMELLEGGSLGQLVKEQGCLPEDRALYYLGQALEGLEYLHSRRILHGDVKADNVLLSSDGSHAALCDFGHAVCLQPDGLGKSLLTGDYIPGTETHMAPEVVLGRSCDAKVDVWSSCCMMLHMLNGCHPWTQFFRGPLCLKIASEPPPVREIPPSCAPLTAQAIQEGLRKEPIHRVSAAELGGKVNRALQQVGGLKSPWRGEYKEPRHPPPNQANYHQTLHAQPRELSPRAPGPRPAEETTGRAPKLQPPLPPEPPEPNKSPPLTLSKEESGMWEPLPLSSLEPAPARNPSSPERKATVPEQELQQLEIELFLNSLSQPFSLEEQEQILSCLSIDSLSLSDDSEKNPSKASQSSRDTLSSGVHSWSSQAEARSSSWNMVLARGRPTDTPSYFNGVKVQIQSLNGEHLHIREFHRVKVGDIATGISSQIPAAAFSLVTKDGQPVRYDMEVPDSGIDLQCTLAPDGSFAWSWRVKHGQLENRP
Value Kind: Ki
The reply should read as a number followed by its unit.

Look over these answered cases.
CC1Cc2c(C(N)=O)nn(-c3cccc(C#C[C@]4(O)CCN(C)C4=O)c3)c2C1 (some centres unmarked) [Compound 188] = 0.85 nM
C[C@@H](O)c1ccc2c(c1)c(C(N)=O)nn2-c1cccc(C#C[C@]2(O)CCN(C)C2=O)c1 [Compound 43] = 1.6 nM

# input molecule: Cc1ncc2c(C(N)=O)nn(-c3cccc(C#C[C@]4(O)CCN(C)C4=O)c3)c2n1 [Compound 157] ; wanted: its Ki
0.68 nM

# input molecule: CC(=O)N1CC(c2cnc3c(c2)c(C(N)=O)nn3-c2cccc(C#C[C@]3(O)CCN(C)C3=O)c2)C1 [Compound 107] ; wanted: its Ki
1.82 nM

# input molecule: CN1CC[C@@](O)(C#Cc2cccc(-n3nc(C(N)=O)c4c3CCCN4)c2)C1=O [Compound 151] ; wanted: its Ki
3.96 nM

# input molecule: C[C@@](O)(C#Cc1cccc(-n2nc(C(N)=O)c3ccccc32)c1)c1c[nH]nn1 [Compound 117] ; wanted: its Ki
0.32 nM

# input molecule: CCNc1nccc2c1c(C(N)=O)nn2-c1cccc(C#C[C@]2(O)CCN(C)C2=O)c1 [Compound 129] ; wanted: its Ki
0.05 nM

# input molecule: CN1CC[C@@](O)(C#Cc2cccc(-n3nc(C(N)=O)c4c3CCC4)c2)C1=O [Compound 119] ; wanted: its Ki
0.43 nM
